Target: T1, mTTD-PHD V1 R298* (R298A) (mouse, UniProt Q8VDF2-1 122-380, R298A)
T1 construct: UHRF1, mouse, splicing variant V1 (NCBI NP_001104550.1), TTD-Linker 2-PHD, residues 122-380 as told for wild-type mTTD-PHD V1; source: E. coli BL21(DE3) RIL, purified (HisPur Cobalt-Resin)
T1 sequence (looked up): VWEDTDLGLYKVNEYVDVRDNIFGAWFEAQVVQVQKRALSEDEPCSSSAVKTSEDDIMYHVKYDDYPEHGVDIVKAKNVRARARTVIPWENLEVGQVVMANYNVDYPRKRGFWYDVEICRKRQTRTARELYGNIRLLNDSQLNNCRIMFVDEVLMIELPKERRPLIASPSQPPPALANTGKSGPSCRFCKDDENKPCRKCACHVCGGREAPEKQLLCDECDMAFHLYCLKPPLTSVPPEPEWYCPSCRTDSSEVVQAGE
Assay: fluorescence polarisation; FAM-labelled H3(1-15) peptide, recombinant protein titrated; RT; as described (ref. 28)
Conditions: both partners purified
READOUT_TYPE: Kd (µM)
Please respond with the number in µM and leave the unit unwritten.

Record ARTKQTARKSTGGKA (fluorescein (FAM) on the N-terminus; K9 trimethylated, histone H3 aa 1-15; also called FAM-H3K9me3; source: synthetic peptide (Synpeptide Co., Ltd)) [FAM-H3(1-15)K9me3 peptide (N-terminally fluorescein-labelled)] , field Kd: 5.9

Cited source: paper PMC7430637
